- MEASURED_TARGET: LNX1_1, Q8TBB1
- Sequence (Q8TBB1 261-371): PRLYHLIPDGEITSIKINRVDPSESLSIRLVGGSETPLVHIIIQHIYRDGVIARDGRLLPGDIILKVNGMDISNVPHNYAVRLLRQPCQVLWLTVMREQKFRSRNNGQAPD
- PROTOCOL_NOTES: holdup assay
- Parameters: key: below the threshold = too weak to quantify, mostly under pKd 3.1 to 4
- EXPERIMENTAL_CONDITIONS: plain residues with an end cap or a label only (N-terminal biotin on a linker: ado-ado)
MEASUREMENT_KIND: pKd

Here is how some binders turned out for pKd.
Q) # pKd lookup, item NNMAFETTHF [SLC5A12, Q1EHB4]
A) below the threshold

Q) # pKd lookup, item PSDSVGKDVF [EGLN1, Q9GZT9]
A) below the threshold

Q) # pKd lookup, item GNDPDRGTSI [GRID2, O43424]
A) 3.67

Q) # pKd lookup, item IKLETKKTKL [SLC15A2, Q16348]
A) 3.79

Q) # pKd lookup, item VCMGDHWFDV [PRKN, O60260]
A) 3.94

Q) # pKd lookup, item QLKSGRDSTV [TMEM178A, Q8NBL3]
A) below the threshold

Q) # pKd lookup, item NTALVESEDL [PALLS, Q8WX93;Q8WX93-1]
A) below the threshold

Q) # pKd lookup, item ATKDKKITTV [EXOC4, Q96A65]
A) 3.69

Q) # pKd lookup, item NKSEPFLTWL [WWTR1, Q9GZV5]
A) 4.13

Q) # pKd lookup, item VISSDDLTEL [CAPN6, Q9Y6Q1]
A) below the threshold

Further cases:
Q) # pKd lookup, item DFKHTKSFII [JAM2, P57087]
A) below the threshold

Q) # pKd lookup, item HLSTRQGTCV [ATRNL1, Q5VV63]
A) 4.34
